- target-or-system: Amyloid-beta precursor protein (Homo sapiens)
- procedure-summary: Inhibition of self-induced amyloid beta 42 (unknown origin) aggregation measured for 24 hrs by thioflavin T-based fluorescence spectroscopic analysis
- measurement-parameters: read-out: IC50
assay-readout: IC50 (µM)

The following molecules have reported results that may help.
{"columns": ["molecule", "observed-result"],
 "data": [
  ["Nc1nc(NCc2cccc(Br)c2)c2ccccc2n1", 22.3],
  ["Nc1nc(NCc2ccc(C(F)(F)F)cc2)nc2ccccc12", 5.3],
  ["Nc1nc(NCc2cccc(F)c2)nc2ccccc12", 14.7],
  ["Nc1nc(NCc2ccccc2)nc2ccccc12", 8.4]
]}

I: Nc1nc(NCc2ccc(Br)cc2)nc2ccccc12
II: Nc1nc(NCc2cccc(Br)c2)nc2ccccc12
III: Cc1ccc(CNc2nc(N)c3ccccc3n2)cc1
# rank_down: sort by IC50, max first # the answer lists labels in the order requested
III, II, I
(III: 22.5 µM, II: 2.7 µM, I: 1.7 µM)

I: Nc1nc(NCc2cccc(C(F)(F)F)c2)nc2ccccc12
II: Nc1nc(NCc2cccc(C(F)(F)F)c2)c2ccccc2n1
III: O=S(=O)(O)c1cc(S(=O)(=O)O)c2c(/N=N/c3ccccc3)c(O)ccc2c1 [ORANGE G SODIUM]
In this exercise, place the 3 molecules in ascending sequence of their recorded IC50. Hello, could you send the labels back in the order asked? Thank you.
III, I, II

* * *

- target-or-system: Amyloid-beta precursor protein (Homo sapiens, UniProt P05067)
- Sequence (P05067 whole entry): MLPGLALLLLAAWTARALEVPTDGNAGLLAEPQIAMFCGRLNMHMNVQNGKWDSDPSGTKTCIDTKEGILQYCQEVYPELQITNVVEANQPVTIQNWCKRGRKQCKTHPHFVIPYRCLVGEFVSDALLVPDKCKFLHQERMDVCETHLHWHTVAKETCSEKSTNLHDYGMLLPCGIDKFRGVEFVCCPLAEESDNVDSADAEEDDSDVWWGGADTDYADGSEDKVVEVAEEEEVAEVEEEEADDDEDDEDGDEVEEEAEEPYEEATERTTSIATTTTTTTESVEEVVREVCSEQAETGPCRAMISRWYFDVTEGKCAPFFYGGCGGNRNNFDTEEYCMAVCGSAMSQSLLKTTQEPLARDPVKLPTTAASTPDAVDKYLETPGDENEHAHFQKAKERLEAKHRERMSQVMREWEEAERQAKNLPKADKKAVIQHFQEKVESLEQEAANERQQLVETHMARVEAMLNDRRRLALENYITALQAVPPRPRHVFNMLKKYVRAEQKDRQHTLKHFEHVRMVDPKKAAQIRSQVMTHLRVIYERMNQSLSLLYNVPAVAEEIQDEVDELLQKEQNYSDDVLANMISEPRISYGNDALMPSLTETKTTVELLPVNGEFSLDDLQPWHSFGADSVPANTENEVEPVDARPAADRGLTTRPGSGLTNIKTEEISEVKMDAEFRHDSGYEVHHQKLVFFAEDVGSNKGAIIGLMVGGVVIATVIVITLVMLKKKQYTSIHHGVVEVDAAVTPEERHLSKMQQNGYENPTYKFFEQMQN
- procedure-summary: Inhibition of self-induced amyloid beta 40 (unknown origin) aggregation measured for 24 hrs by thioflavin T-based fluorescence spectroscopic analysis
assay-readout: IC50 (µM)

Examples with answers:
{"columns": ["smiles-data", "assay-readout", "observed-result"],
 "data": [
  ["CC(C)Nc1nc(N)nc2ccccc12", "IC50", 10.2],
  ["Nc1nc(NCC2CCCCC2)c2ccccc2n1", "IC50", 13.6],
  ["Nc1nc(NCc2ccc(Br)cc2)nc2ccccc12", "IC50", 1.7],
  ["Nc1nc(NCc2cccc(Cl)c2)nc2ccccc12", "IC50", 5.9],
  ["Nc1nc(NCCc2ccccc2)nc2ccccc12", "IC50", 14.9],
  ["Cc1ccc(CNc2nc(N)c3ccccc3n2)cc1", "IC50", 13.1]
]}

a: Nc1nc(NCc2cccc(Cl)c2)c2ccccc2n1
b: Nc1nc(NCc2ccc(Cl)cc2)c2ccccc2n1
c: Nc1nc(NCc2ccccc2)c2ccccc2n1
d: CCCNc1nc(N)nc2ccccc12
Put the items in order so that reported IC50 rises from first to last. Write the labels out in the order the request specifies.
b, a, c, d
(b: 0.62 µM, a: 1.9 µM, c: 4.8 µM, d: 14.9 µM)

* * *

- target-or-system: Amyloid-beta precursor protein (Homo sapiens, UniProt P05067)
- procedure-summary: Inhibition of self-induced amyloid beta 40 (unknown origin) aggregation measured for 24 hrs by thioflavin T-based fluorescence spectroscopic analysis
assay-readout: IC50 (µM)

{"columns": ["compound", "units-label", "IC50"],
 "data": [
  ["COc1ccc(CNc2nc(N)nc3ccccc23)cc1", "µM", 1.1],
  ["O=S(=O)(O)c1cc(S(=O)(=O)O)c2c(/N=N/c3ccccc3)c(O)ccc2c1 [ORANGE G SODIUM]", "µM", 3],
  ["Nc1nc(NCc2ccc(C(F)(F)F)cc2)nc2ccccc12", "µM", 2.3]
]}

1: COc1ccc(CNc2nc(N)c3ccccc3n2)cc1
2: Nc1nc(NCc2ccc(F)cc2)c2ccccc2n1
3: Nc1nc(NCc2cccc(Br)c2)c2ccccc2n1
Ascending by IC50, please. Answer format: the labels, in the requested order.
3, 2, 1

* * *

- target-or-system: Amyloid-beta precursor protein (Homo sapiens, UniProt P05067)
- procedure-summary: Inhibition of self-induced amyloid beta 40 (unknown origin) aggregation measured for 24 hrs by thioflavin T-based fluorescence spectroscopic analysis
pIC50: −log10 of the molar value.
assay-readout: pIC50

Solved cases below.
{"columns": ["smiles-data", "pIC50"],
 "data": [
  ["Nc1nc(NCc2cccc(C(F)(F)F)c2)nc2ccccc12", 4.90],
  ["Nc1nc(NCc2ccc(C(F)(F)F)cc2)c2ccccc2n1", 5.72],
  ["Nc1nc(NCc2cccc(C(F)(F)F)c2)c2ccccc2n1", 5.46]
]}

1: Cc1ccc(CNc2nc(N)nc3ccccc23)cc1
2: Nc1nc(NCCc2ccccc2)c2ccccc2n1
Hey, which is lower on measured pIC50, 1 or 2 ? Give the label of your selection.
2
(2: 5.11, 1: 5.41)

I: Cc1cccc(CNc2nc(N)nc3ccccc23)c1
II: Nc1nc(NCc2cccc(F)c2)nc2ccccc12
III: Nc1nc(NCc2cccc(Br)c2)nc2ccccc12
IV: Nc1nc(NCc2ccc(Cl)cc2)nc2ccccc12
V: Nc1nc(NCc2ccc(Br)cc2)c2ccccc2n1
Task field, ranking: reported pIC50, descending order. // respond by listing labels in the order requested
V, IV, III, I, II

A: Nc1nc(NCc2cccc(F)c2)c2ccccc2n1
B: COc1cccc(CNc2nc(N)nc3ccccc23)c1
Which of the two gives a bigger number for pIC50: A or B ? Reply briefly: the label of your chosen item.
A

* * *

- target-or-system: Amyloid-beta precursor protein (Homo sapiens, UniProt P05067)
- procedure-summary: Inhibition of self-induced amyloid beta 40 (unknown origin) aggregation measured for 24 hrs by thioflavin T-based fluorescence spectroscopic analysis
assay-readout: IC50

# example entries with known answers
{"columns": ["smiles-data", "observed-result"],
 "data": [
  ["COc1cccc(CNc2nc(N)c3ccccc3n2)c1", "> 25 µM"],
  ["CC(C)Nc1nc(N)c2ccccc2n1", "> 25 µM"],
  ["CCCNc1nc(N)c2ccccc2n1", "> 25 µM"],
  ["Nc1nc(NCC2CCCCC2)nc2ccccc12", "> 25 µM"],
  ["Nc1nc(NCc2ccccc2)nc2ccccc12", "2.2 µM"]
]}

Kindly consider the entry below.
Item Cc1cccc(CNc2nc(N)c3ccccc3n2)c1 has what recorded IC50?
> 25 µM
